# runDescription: Plasma pharmacokinetics of PB and metabolites PA and PG
# measurementConditions: plasma; PB continuous infusion over 24 hours, 400 mg/kg/d; Overall; mean ± SD
quantityKind: Cmax (µM)
Record the value in µM, omitting the unit from your answer.

Query: Look at this compound and give its reported Cmax. O=C(O)Cc1ccccc1
Response: 1400
